- Experimental target: A3A-E72A (Homo sapiens, UniProt P31941, E72A)
- Sequence (P31941 whole entry E72A): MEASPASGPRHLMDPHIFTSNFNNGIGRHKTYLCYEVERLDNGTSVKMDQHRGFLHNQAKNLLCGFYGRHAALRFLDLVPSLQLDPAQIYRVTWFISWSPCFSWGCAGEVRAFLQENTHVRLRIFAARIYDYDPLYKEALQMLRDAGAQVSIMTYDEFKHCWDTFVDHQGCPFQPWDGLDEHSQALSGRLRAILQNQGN
- Assay overview: Isothermal titration calorimetry (ITC), binding to A3A-E72A
- Experimental context: ITC buffer 2 (Na+/K+ phosphate, pH 6.0, BSA; frozen and defrosted), 25° C
Reported metric: Kd (nM)
# output: bare number, implied unit nM

response.value for ATTTCATTT [5′-AT3dCAT3] (field: Kd) = 120

----------
- Experimental target: A3A-E72A (Homo sapiens, UniProt P31941, E72A)
- Assay overview: Isothermal titration calorimetry (ITC), binding to A3A-E72A
- Experimental context: ITC buffer 1 (50 mM MES, pH 6.0), 25° C
Reported metric: pKd
Formally, pKd is defined as -log10 of the concentration c, with c in mol/L.

Sample ATTTCATTT [5′-AT3dCAT3] ; pKd observed: 6.70

Value source: patent US20240140983A1
